The entries below come with measured AGE-fluorescence (day 0) values attached.
# System: glycation of histone H1 by ADP-ribose
# TEST_DETAILS: Screening of inhibitors of nonoxidative advanced glycation: AGE-fluorescence on 96 well-microtiter plate
# Format: biochemical, calf
# CONDITION_SET: compound 1 mM; day 0; (± SEM, n = 2)

Examples from the recorded data:
INSERT INTO assay_data (molecule, measurement) VALUES
  ('CC(C)(S)C(N)C(=O)O (racemic)', '1.1 (0.2) relative units'),
  ('N[C@@H](CS)C(=O)O', '1.2 (0.1) relative units'),
  ('CC(C)(S)[C@@H](N)C(=O)O', '1.2 (0.0) relative units');

# get_value(readout='AGE-fluorescence (day 0)', item= N[C@@H](CCC(=O)N[C@@H](CS)C(=O)NCC(=O)O)C(=O)O ) 1.3 (0.0) relative units

Please look up its AGE-fluorescence (day 0): COC(=O)[C@@H](N)CS 1.2 (0.1) relative units

Would you kindly share the measured AGE-fluorescence (day 0) for NCCS ? 1.0 (0.1) relative units

* * *

# Test system: glycation of histone H1 by ADP-ribose
# TEST_DETAILS: Screening of inhibitors of nonoxidative advanced glycation: AGE-fluorescence on 96 well-microtiter plate
# Format: biochemical, calf
# CONDITION_SET: compound 1 mM; day 0; (± SEM, n = 2)
READOUT_KIND: AGE-fluorescence (day 0)

Here's what some known entries look like.
INSERT INTO results (compound, measurement) VALUES
  ('N=C(N)NN [Aminoguanidine]', '1.2 (0.1) relative units'),
  ('C[N+](C)(C)[C@@H](Cc1c[nH]c(=S)[nH]1)C(=O)[O-] [L-Ergothioneine]', '1.0 (0.1) relative units'),
  ('CC(=O)N[C@@H](CS)C(=O)O [NAC]', '1.2 (0.2) relative units'),
  ('NC(CCS)C(=O)O (racemic) [D,L-Homocysteine]', '1.3 (0.0) relative units');

Next item in the queue.
What value of AGE-fluorescence (day 0) has been reported for the following compound? O=C1CC(=O)NC(=S)N1 [2-Thiobarbituric acid] 1.1 (0.1) relative units

* * *

Known AGE-fluorescence (day 5) of a selection of molecules
# Test system: glycation of histone H1 by ADP-ribose
# TEST_DETAILS: Screening of inhibitors of nonoxidative advanced glycation: AGE-fluorescence on 96 well-microtiter plate
# Assay type: biochemical, calf
# CONDITION_SET: compound 1 mM; day 5; complete reaction under air; (± SEM, n = 2)

Completed entries (count: 8):
INSERT INTO assay_data (molecule, measurement) VALUES
  ('N[C@@H](CS)C(=O)O', '14 (0.3) relative units'),
  ('CC(C)(S)[C@@H](N)C(=O)O', '11 (0.6) relative units'),
  ('N[C@@H](CCC(=O)N[C@@H](CS)C(=O)NCC(=O)O)C(=O)O', '19 (0.3) relative units'),
  ('NC(CCS)C(=O)O (racemic)', '16 (1.1) relative units'),
  ('CC(C)(S)C(N)C(=O)O (racemic)', '13 (0.0) relative units'),
  ('NCCS', '10 (0.6) relative units'),
  ('O=C1CC(=O)NC(=S)N1', '12 (0.4) relative units'),
  ('COC(=O)[C@@H](N)CS', '15 (0.1) relative units');

Give the measured AGE-fluorescence (day 5) of N=C(N)NN . 4.3 (0.2) relative units

Data request, read-out AGE-fluorescence (day 5), for C[N+](C)(C)[C@@H](Cc1c[nH]c(=S)[nH]1)C(=O)[O-] 13 (0.0) relative units

Give the measured AGE-fluorescence (day 5) of CC(=O)N[C@@H](CS)C(=O)O . 11 (0.6) relative units

* * *

A collection of molecules and their measured AGE-fluorescence (day 0)
# System: glycation of histone H1 by ADP-ribose
# TEST_DETAILS: Screening of inhibitors of nonoxidative advanced glycation: AGE-fluorescence on 96 well-microtiter plate
# Assay type: biochemical, calf
# CONDITION_SET: compound 10 mM; day 0; (± SEM, n = 2)

Which measured AGE-fluorescence (day 0) value corresponds to CC(C)(S)[C@@H](N)C(=O)O ? 1.1 (0.0) relative units

Value lookup for AGE-fluorescence (day 0); key = N=C(N)NN 1.3 (0.1) relative units

Request the reported AGE-fluorescence (day 0) associated with N[C@@H](CS)C(=O)O 1.2 (0.1) relative units

Tell me the measured AGE-fluorescence (day 0) of N[C@@H](CCC(=O)N[C@@H](CS)C(=O)NCC(=O)O)C(=O)O , please. 1.1 (0.0) relative units

Using the record for CC(C)(S)C(N)C(=O)O (racemic) , report its AGE-fluorescence (day 0). 1.1 (0.1) relative units

* * *

# Test system: glycation of histone H1 by ADP-ribose
# TEST_DETAILS: Screening of inhibitors of nonoxidative advanced glycation: AGE-fluorescence on 96 well-microtiter plate
# Assay type: biochemical, calf
# CONDITION_SET: compound 5 mM; day 0; (± SEM, n = 2)
READOUT_KIND: AGE-fluorescence (day 0)

INSERT INTO results (compound, measurement) VALUES
  ('O=C1CC(=O)NC(=S)N1 [2-Thiobarbituric acid]', '1.2 (0.1) relative units'),
  ('N[C@@H](CCC(=O)N[C@@H](CS)C(=O)NCC(=O)O)C(=O)O [GSH, glutathione]', '1.1 (0.3) relative units'),
  ('N[C@@H](CS)C(=O)O [L-Cys]', '1.1 (0.1) relative units'),
  ('C[N+](C)(C)[C@@H](Cc1c[nH]c(=S)[nH]1)C(=O)[O-] [L-Ergothioneine]', '1.2 (0.0) relative units'),
  ('COC(=O)[C@@H](N)CS [L-Cys-OMe]', '1.3 (0.1) relative units');

So what does the record say about AGE-fluorescence (day 0) for NCCS [Cysteamine] ? 1.1 (0.1) relative units

Look up AGE-fluorescence (day 0): NC(=O)C1=CN([C@@H]2O[C@H](COP(=O)(O)OP(=O)(O)OC[C@H]3O[C@@H](n4cnc5c(N)ncnc54)[C@H](O)[C@@H]3O)[C@@H](O)[C@H]2O)C=CC1 [NADH] 52 (0.3) relative units

Name the recorded AGE-fluorescence (day 0) for CC(C)(S)C(N)C(=O)O (racemic) [D,L-Penicillamine] . 1.1 (0.1) relative units

* * *

# System: glycation of histone H1 by ADP-ribose
# TEST_DETAILS: Screening of inhibitors of nonoxidative advanced glycation: AGE-fluorescence on 96 well-microtiter plate
# Type: biochemical, calf
# CONDITION_SET: compound 10 mM; day 0; (± SEM, n = 2)
# AGE-fluorescence (day 0) values compiled below

Below, each entry is followed by its recorded AGE-fluorescence (day 0) result.
INSERT INTO measurements (molecule, measurement) VALUES
  ('NC(CCS)C(=O)O (racemic)', '1.1 (0.1) relative units'),
  ('O=C1CC(=O)NC(=S)N1', '1.3 (0.1) relative units'),
  ('NCCS', '1.2 (0.2) relative units');

Name the reported AGE-fluorescence (day 0) value associated with the molecule COC(=O)[C@@H](N)CS 1.2 (0.1) relative units

I'd like to know its AGE-fluorescence (day 0). The molecule in question is C[N+](C)(C)[C@@H](Cc1c[nH]c(=S)[nH]1)C(=O)[O-] 1.2 (0.1) relative units

Record request: AGE-fluorescence (day 0) value, item CC(=O)N[C@@H](CS)C(=O)O 1.1 (0.1) relative units

* * *

# Test system: glycation of histone H1 by ADP-ribose
# TEST_DETAILS: Screening of inhibitors of nonoxidative advanced glycation: AGE-fluorescence on 96 well-microtiter plate
# Type: biochemical, calf
# CONDITION_SET: compound 5 mM; day 0; (± SEM, n = 2)
Reported values of AGE-fluorescence (day 0) for individual entries

Known results for compounds:
INSERT INTO measurements (compound, measurement_target, measurement) VALUES
  ('CC(C)(S)[C@@H](N)C(=O)O [D-Penicillamine]', 'glycation of histone H1 by ADP-ribose', '1.1 (0.1) relative units'),
  ('CC(=O)N[C@@H](CS)C(=O)O [NAC]', 'glycation of histone H1 by ADP-ribose', '1.0 (0.1) relative units'),
  ('N=C(N)NN [Aminoguanidine]', 'glycation of histone H1 by ADP-ribose', '1.2 (0.1) relative units');

Please look at the following compound next.
Any idea what its AGE-fluorescence (day 0) is? The compound is NC(CCS)C(=O)O (racemic) [D,L-Homocysteine] 1.2 (0.2) relative units
